The entries below are paired with their reported pEC50.
Target: T1, CLDN6 endogenously expressed by human cancer cell lines (ARK2, OVCA429) (human, UniProt P56747 1-220)
T1 construct: Untagged endogenous protein; also called Endogenous CLDN6+
T1 sequence: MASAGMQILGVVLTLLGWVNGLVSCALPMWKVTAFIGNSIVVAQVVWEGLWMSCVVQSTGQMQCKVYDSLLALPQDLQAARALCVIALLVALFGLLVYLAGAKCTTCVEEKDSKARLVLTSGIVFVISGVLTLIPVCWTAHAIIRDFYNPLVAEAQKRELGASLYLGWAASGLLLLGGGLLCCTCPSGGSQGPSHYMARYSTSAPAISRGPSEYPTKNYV
Test: FACS, AF647-labelled mAb, ARK2 cells
pEC50 (log units): -log10 of the concentration in mol/L.

Example cases with answers are listed next.
Binder	pEC50
AB12 (antibody, V domains shown, Labelled with Alexa Fluor 647 NHS ester for FACS) VH: EVKLMESGGDLVKPGGSLKLSCAASGFTFSSYAMSWVRQTPEKRLEWVASIRSGGTTYYPDSVKGRFTISRDNARNILYLRMSSLRSEDTAIYYCAKVGGNPYPMDYWGQGTSVTVSS VL: DIQMIQSPSSMFASLGDRVSLSCRASQDIGGNLDWYQQKPGGTIKLLIYSTSNLNSGVPSRFSGSGSGSDYSLTITSLESEDFADYYCLQRNAYPLTFGAGTKLELK	5.89
AB1 (antibody, V domains shown, Labelled with Alexa Fluor 647 NHS ester for FACS) VH: QVQLQQSAAELARPGASVKMSCKASGYTFTTYTMHWVKQRPGQGLEWIGFINPSSGYTDYNQKFKDRTTLTADKSSSTVYMQLSSLTSEDSAVYYCANGDYYVAYWGQGTLVTVSA VL: QIVLTQSPAIMSASLGERVTMTCTASSSVSSTYFHWYQQKPGSSPKLWIYSTSNLASGVPRRFSGSASGTSYSLTISSMEAEDAATYYCHQYHRSPLTFGAGTKLELK	6.98

Here's the next entry for you.
Prompt: Reported pEC50 for AB13 (antibody, V domains shown, Labelled with Alexa Fluor 647 NHS ester for FACS) VH: QVQLQQSGAELVRPGTSVKVSCKASGYAFSNYLIEWVKQRPGQGLEWIGVINPGSGGTNYNEKFKGKATMTADKSSSTAYMHLSNLTSEDSVVYFCARSYFGRSYPYTMDYWGQGTSVTVSS VL: EIVLTQSPTTMAASPGEKITITCSASSSISSNYLHWYQQKPGFSPKLLIYRTSNLASGVPARFSGSGSGTSYSLTIGTMEAEDVATYYCQQGSSIPLTFGAGTKLELK : what is it?
Response: 5.94
